Where do these numbers come from? They come from patent US20100047253A1.

Please respond with reported IC50, IL-13 induced eotaxin release, Average for every item in the list.
- Tested target: human IL-13 (source not stated for the assay) (human, UniProt P35225 35-146, limits assumed)
- Sequence (P35225 35-146 limits assumed): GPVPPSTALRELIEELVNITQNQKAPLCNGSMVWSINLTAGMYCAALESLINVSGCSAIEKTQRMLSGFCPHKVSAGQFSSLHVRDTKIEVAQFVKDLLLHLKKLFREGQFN
- Test description: cell-based or functional assay
Numbers only, in nM.

Please review the following examples before continuing.
Binder	Unit info	Value reported
mAb 183 (antibody, V domains shown) VH: EVQLVESGGGLVKPGGSLRLSCAASGFTFSSYSMNWVRQAPGKGLEWVSYISSSYNYIYYGDSVKGRFTISRDNAKNSLYLQMNSLRAEDTAVYYCARDQVGATLDAFDIWGQGTMVTVSS VL: DIQMTQSPSSLSASVGDRVTITCRASQGIGDDLGWYQQKPGKAPKRLIYAASSLQSGVPSRFSGSGSGTEFTLTISSLQPEDFATYYCLQHNSYPFTFGPGTKVDIK	nM	1.44
mAb 11.18 (antibody, V domains shown) VH: QVQLVESGGGVVQPGRSLRLSCVASGFTFSSYDMHWVRQAPGKGLEWVAVIWYDGSNKYYADSVQGRFTISRDNSKNTLYLQMNSLRAEDTAVYYCTSEDSSGWYDGWFDPWGQGTLVTVSS VL: DIQMTQSPSSLSASVGDRVTITCRASQGISNYLAWYQQKPGKVPKVLIYAASTLQSGVPSRFSGSGSGTDFTLTISSLQPEDVATYYCQKYNSAPFTFGPGTKVDIK	nM	0.245
mAb 157 (antibody, V domains shown) VH: EVQLVESGGGLVKPGGSLRLSCAASGFTFSSYSMNWVRQAPGKGLEWVSYISTSYNYIYYADSVKGRFTISRDNAKNSLYLQMNSLRAEDTAVYYCARDQVGATLDAFDIWGQGTMVTVSS VL: DIQMTQSPSSLSASVGDRVTITCRASQGIGDDLGWYQQKPGKAPKRLIYAASSLQSGVPSRFSGSGSGTEFTLTISSLQPEDFATYYCLQHNSYPFTFGPGTRVDIK	nM	0.258

Next binder, IC50, IL-13 induced eotaxin release, Average to be filled in.
Request: // lookup IC50, IL-13 induced eotaxin release, Average for mAb 623 (antibody, V domains shown, also called sc623) VH: EVQLVESGGGLVKPGGSLRLSCAASGFTFSNAWMSWVRQAPGKGLEWVGRIRSEIDGGTTNYAAPVKGRFTISRDDSKNTLYLQMNSLKTEDTAVYYCATDQVGAYYGDYYGMDVWGQGTTVTVSS VL: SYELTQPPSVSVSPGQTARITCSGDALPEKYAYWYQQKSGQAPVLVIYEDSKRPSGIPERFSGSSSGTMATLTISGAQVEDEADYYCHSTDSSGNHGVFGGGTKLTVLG
Response: 0.036
